src = the supplement of paper PMC8728848

Target: Fuc(a1-2)Gal(b1-4)[Fuc(a1-3)]GlcNAc(b1-3)GalNAc
Assay: glycan array binding signal (z-score within array); higher = stronger binding
Settings: glycan notation: IUPAC condensed, linker removed
Many of the other results were omitted from the sample, so the strongest signals are more common in it than they were.
assayReadout: glycan array binding signal (z-score)

ArathEULS3 TAP (Arabidopsis thaliana) (protein) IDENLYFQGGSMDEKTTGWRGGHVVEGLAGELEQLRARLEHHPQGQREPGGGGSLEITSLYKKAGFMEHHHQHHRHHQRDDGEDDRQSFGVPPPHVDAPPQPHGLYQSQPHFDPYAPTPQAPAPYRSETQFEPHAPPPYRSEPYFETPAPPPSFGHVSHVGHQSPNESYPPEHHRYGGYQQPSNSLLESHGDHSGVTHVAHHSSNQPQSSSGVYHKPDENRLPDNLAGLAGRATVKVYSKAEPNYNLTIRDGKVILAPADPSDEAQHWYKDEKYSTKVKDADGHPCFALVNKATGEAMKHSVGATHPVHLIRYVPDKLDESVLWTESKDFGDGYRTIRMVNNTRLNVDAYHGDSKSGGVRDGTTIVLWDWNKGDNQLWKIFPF | -0.688
EEA (Euonymus europaeus) (protein) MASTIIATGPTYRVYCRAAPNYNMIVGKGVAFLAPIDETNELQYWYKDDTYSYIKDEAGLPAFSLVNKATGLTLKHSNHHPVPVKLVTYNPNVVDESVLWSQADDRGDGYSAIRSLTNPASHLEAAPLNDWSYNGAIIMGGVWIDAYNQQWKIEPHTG | 0.023
Gal 2 (Canis lupus) (protein) MSGKFEVMNMDMKLGGTLKIKGKIAGDADGFVINLGQGSDKLNLHFNPRFHESVIVCNSRNWGQEQRDKHMCFSPGSEVKFTVTFENDGFKVKLPDGHQLTFPNRLGHSHLSYLGVQGGLKVSSFKIE | 0.409
